# procedure summary: logP determination by reversed-phase HPLC (EEC Directive 79/831 Annex V.A8), acidic range
# Assay type: physicochemical
# applied conditions: pH 2; HPLC, C18 reversed-phase column; read-out: logP (pH 2)
experimental endpoint: chromatographic logP

O=c1[nH]c(C2CC2)nc2c1cnn2-c1ncc(C(F)(F)F)cc1Cl 2.19

Prompt: Quick one: chromatographic logP of O=c1[nH]cnc2c1cnn2-c1ncc(C(F)(F)F)cc1Cl ?
Completion: 1.54

Prompt: Quick check: chromatographic logP of Cn1c(C2CC2)nc2c(cnn2-c2ncc(C(F)(F)F)cc2Cl)c1=O ?
Completion: 2.61

Prompt: Field request: chromatographic logP | item: Cn1cnc2c(cnn2-c2ncc(C(F)(F)F)cc2Cl)c1=O
Completion: 1.76

Prompt: Quick check: chromatographic logP of NC(=O)c1cnn(-c2ncc(C(F)(F)F)cc2Cl)c1N ?
Completion: 1.46

Prompt: Consider the compound shown here: Cc1nc2c(cnn2-c2c(Cl)cc(C(F)(F)F)cc2Cl)c(=O)[nH]1 What is its recorded chromatographic logP?
Completion: 2.25

Numbers sourced from patent US20050209251A1.
